assayRemarks: Pharmacokinetic study in rats
experimentalContext: rat, plasma, po, 3 mg/kg
outcomeMeasure: Cmax (ng/mL)
Answers are plain numbers, in ng/mL.

Worked set:
>  <compound>
COc1cc2c(cc1Nc1ncc(Cl)c(Nc3cccnc3N3CCCC3=O)n1)OC[C@H]1CN(C(C)=O)CCN21

>  <Cmax [ng/mL]>
500

$$$$
>  <compound>
COc1cc2c(cc1Nc1ncc(C(F)(F)F)c(CCc3ccccc3CC(N)=O)n1)OC[C@H]1CN(C)CCN21

>  <Cmax [ng/mL]>
387

$$$$
>  <compound>
COc1cc2c(cc1Nc1ncc(Cl)c(Nc3cccnc3N3CCCC3=O)n1)OC[C@H]1CN(C(=O)C3CC3)CCN21

>  <Cmax [ng/mL]>
292

$$$$
>  <compound>
COc1cc2c(cc1Nc1ncc(Cl)c(Nc3cccnc3N3CCCC3=O)n1)OC[C@H]1CN(C3CCN(C4CC4)CC3)CCN21 [Compound E10R]

>  <Cmax [ng/mL]>
133

$$$$
>  <compound>
CCc1cc2c(cc1Nc1ncc(C(F)(F)F)c(NCCCN3CCOCCC3=O)n1)OC[C@H]1CN(C3CCN(C)CC3)CCN21

>  <Cmax [ng/mL]>
149

$$$$

Pending compound:
Record CCc1cc2c(cc1Nc1ncc(C(F)(F)F)c(NCCCN3CCOCCC3=O)n1)OC[C@H]1CNCCN21 , field Cmax: 217

====

I'd appreciate it if you could supply pIC50 values for the items below.
targetOfAssay: ULK1 kinase (Homo sapiens, UniProt O75385)
Sequence (O75385 whole entry): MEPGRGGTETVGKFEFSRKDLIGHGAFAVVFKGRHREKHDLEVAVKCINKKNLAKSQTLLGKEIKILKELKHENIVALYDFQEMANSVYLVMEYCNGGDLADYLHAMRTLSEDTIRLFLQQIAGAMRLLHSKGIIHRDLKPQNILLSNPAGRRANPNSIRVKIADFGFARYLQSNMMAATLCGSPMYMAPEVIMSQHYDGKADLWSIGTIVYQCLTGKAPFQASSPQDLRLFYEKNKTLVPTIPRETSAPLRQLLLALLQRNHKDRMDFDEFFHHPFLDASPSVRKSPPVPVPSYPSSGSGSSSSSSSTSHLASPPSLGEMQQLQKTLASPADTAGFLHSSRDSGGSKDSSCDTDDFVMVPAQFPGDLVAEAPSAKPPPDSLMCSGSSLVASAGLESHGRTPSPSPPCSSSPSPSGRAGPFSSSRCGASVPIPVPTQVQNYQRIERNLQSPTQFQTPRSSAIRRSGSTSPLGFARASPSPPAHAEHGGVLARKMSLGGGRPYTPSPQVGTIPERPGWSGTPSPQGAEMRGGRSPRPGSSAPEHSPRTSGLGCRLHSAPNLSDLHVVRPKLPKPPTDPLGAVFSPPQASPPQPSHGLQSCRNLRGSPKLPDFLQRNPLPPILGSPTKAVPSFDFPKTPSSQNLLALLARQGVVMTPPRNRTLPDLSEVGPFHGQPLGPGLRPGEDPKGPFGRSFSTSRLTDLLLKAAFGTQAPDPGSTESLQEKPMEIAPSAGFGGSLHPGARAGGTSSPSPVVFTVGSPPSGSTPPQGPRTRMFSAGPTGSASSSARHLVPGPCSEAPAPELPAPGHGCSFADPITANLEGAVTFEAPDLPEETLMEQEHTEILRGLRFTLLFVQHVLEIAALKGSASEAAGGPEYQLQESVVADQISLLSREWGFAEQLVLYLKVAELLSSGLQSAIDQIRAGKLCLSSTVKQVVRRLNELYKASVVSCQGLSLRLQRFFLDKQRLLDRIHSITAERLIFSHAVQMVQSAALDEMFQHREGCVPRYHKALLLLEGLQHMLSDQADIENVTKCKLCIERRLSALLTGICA
assayRemarks: ULK kinase activity inhibition assay (ADP-Glo)
Assay type: biochemical
experimentalContext: ADP-Glo; ATP 100 µM; read-out: ULK1 (IC50)
Procedure: The ADP-Glo method was used to evaluate the inhibitory activity of the compounds against ULK1 and ULK2 kinases. Prepare 1× kinase reaction buffer (final working concentrations: HEPES 50 mM, MgCl2 10 mM, Brij35 0.01%, EGTA 1 mM, DTT 2 mM). […] Read the RLU (Relative Luminescence Unit) signal using a BMG plate reader to indicate kinase activity. Inhibition rate was calculated as: % Inhibition = 100% - [(Compound - Positive Control)/(Negative Control - Positive Control)] × 100%. […]
pIC50: −log10 of the molar value.

Worked set:
>  <smilesData>
CCc1cc2c(cc1Nc1ncc(C(F)(F)F)c(NCCCN3CCOCCC3=O)n1)OC[C@H]1CNCCN21

>  <targetOfAssay>
ULK1 kinase (Homo sapiens, UniProt O75385)

>  <pIC50>
> 9.00

$$$$
>  <smilesData>
CCc1cc2c(cc1Nc1ncc(C(F)(F)F)c(NCCCN3CCCCC3=O)n1)OC[C@H]1CNCCN21

>  <targetOfAssay>
ULK1 kinase (Homo sapiens, UniProt O75385)

>  <pIC50>
> 9.00

$$$$
>  <smilesData>
CCc1cc2c(cc1Nc1ncc(C(F)(F)F)c(NCCCN3CCCCC3=O)n1)OC[C@H]1CN(C)CCN21

>  <targetOfAssay>
ULK1 kinase (Homo sapiens, UniProt O75385)

>  <pIC50>
> 9.00

$$$$

Record CCc1cc2c(cc1Nc1ncc(C(F)(F)F)c(NCCCN3CCOCCC3=O)n1)OC[C@H]1CN(C)CCN21 , field pIC50: > 8.52

====

assayRemarks: Pharmacokinetic study in rats
experimentalContext: rat, plasma, po, 3 mg/kg
Consider the cut-off 2 h. If the recorded Tmax is strictly smaller, the label is true; if not, the label is false.

A selection of reference data follows.
>  <smilesData>
COc1cc2c(cc1Nc1ncc(Cl)c(Nc3ccccc3S(=O)(=O)C(C)C)n1)OC[C@@H]1CN(C3CCOCC3)CCN21

>  <class>
true

$$$$
>  <smilesData>
COc1cc2c(cc1Nc1ncc(C(F)(F)F)c(CCc3ccccc3CC(N)=O)n1)OC[C@H]1CNCCN21

>  <class>
false

$$$$

Query: For this molecule, is Tmax lower than 2 h? CCc1cc2c(cc1Nc1ncc(C(F)(F)F)c(NCCCN3CCOCCC3=O)n1)OC[C@H]1CN(C)CCN21
Reply: true

Query: For this molecule, is Tmax lower than 2 h? CCc1cc2c(cc1Nc1ncc(C(F)(F)F)c(NCCCN3CCCCC3=O)n1)OC[C@H]1CN(C)CCN21
Reply: true

Query: For this molecule, is Tmax lower than 2 h? COc1cc2c(cc1Nc1ncc(C(F)(F)F)c(CCc3ccccc3CC(N)=O)n1)OC[C@H]1CN(C3CN(C)C3)CCN21
Reply: false

Query: For this molecule, is Tmax lower than 2 h? CCc1cc2c(cc1Nc1ncc(C(F)(F)F)c(NCCCN3CCOCCC3=O)n1)OC[C@@H]1CN(C3CCN(C)CC3)CCN21
Reply: true

Query: For this molecule, is Tmax lower than 2 h? CCC(=O)N1CCN2c3cc(OC)c(Nc4ncc(Cl)c(Nc5cccnc5N5CCCC5=O)n4)cc3OC[C@H]2C1
Reply: true

Query: For this molecule, is Tmax lower than 2 h? COc1cc2c(cc1Nc1ncc(Cl)c(Nc3cccnc3N3CCCC3=O)n1)OC[C@H]1CN(C(C)=O)CCN21
Reply: true

Query: For this molecule, is Tmax lower than 2 h? COc1cc2c(cc1Nc1ncc(C(F)(F)F)c(CCc3ccccc3CC(N)=O)n1)OC[C@H]1CN(S(C)(=O)=O)CCN21
Reply: true

Query: For this molecule, is Tmax lower than 2 h? COc1cc2c(cc1Nc1ncc(C(F)(F)F)c(CCc3ccccc3CC(N)=O)n1)OC[C@H]1CN(C3CC3)CCN21
Reply: true

Query: For this molecule, is Tmax lower than 2 h? CCN1CCC(N2CCN3c4cc(OC)c(Nc5ncc(Cl)c(Nc6cccnc6N6CCCC6=O)n5)cc4OC[C@H]3C2)CC1
Reply: false

Query: For this molecule, is Tmax lower than 2 h? COc1cc2c(cc1Nc1ncc(C(F)(F)F)c(CCc3ccccc3CC(N)=O)n1)OC[C@H]1CN(C3CCN(C)CC3)CCN21
Reply: false
